# target_entity: AmvR^L99Q (Acinetobacter baumannii, UniProt A0A7U3Y8S7, L99Q)
# test_description: ITC of spermidine with AmvR^L99Q mutant
property_measured: pKd
Give bare numbers, as −log10 of the molar value.

Q) Specify reported pKd for the molecule shown: `NCCCCNCCCN`
A) 6.12

---

# target_entity: AmvR W126E (Acinetobacter baumannii, UniProt A0A7U3Y8S7, W126E)
# Sequence (A0A7U3Y8S7 4-192 W126E): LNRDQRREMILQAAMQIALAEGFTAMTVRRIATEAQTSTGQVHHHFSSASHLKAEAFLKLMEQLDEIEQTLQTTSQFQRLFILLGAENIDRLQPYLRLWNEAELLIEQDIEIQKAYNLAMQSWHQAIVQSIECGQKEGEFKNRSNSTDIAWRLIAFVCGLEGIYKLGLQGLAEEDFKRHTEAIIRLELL
# test_description: ITC of spermidine with AmvR W126E mutant
# Protocol: The AmvR^WT or mutant proteins were purified with affinity chromatography followed by size-exclusion chromatography and buffer-exchange with buffer D. The polyamines were also dissolved in Buffer D. The ITC experiments were performed at 20°C using a MicroCal PEAQ-ITC (Malvern Panalytical Ltd) using 20 injections of 2 µL or 25 injections of 1.6 µL. A solution of 100 µM AmvR wild-type or mutants was loaded into the cell, whereas a 1 mM solution of polyamines was loaded into the syringe. […]
property_measured: pKd
Numbers only, as −log10 of the molar value.

Q) Assign pKd to the following record: NCCCCNCCCN [spermidine]
A) 5.12

---

For reference, pKd measured on AmvR (Acinetobacter baumannii):
Numbers only, as −log10 of the molar value.

compound	reported_result
NCCCNCCCCNCCCN [spermine]	5.67

Give me pKd for each of these compounds, listed below.
1. NCCCCCN [cadaverine]
2. NCCCCNCCCN [spermidine]
3. NCCCCN [putrescine]

A)
1. 5.23
2. 6.14
3. 5.02

---

# target_entity: AmvR N103A (Acinetobacter baumannii, UniProt A0A7U3Y8S7, N103A)
# test_description: ITC of spermidine with AmvR N103A mutant
property_measured: Kd (µM)
Numbers only, in µM.

Q) Find the measured Kd of NCCCCNCCCN [spermidine] with AmvR N103A (Acinetobacter baumannii, UniProt A0A7U3Y8S7, N103A) as test system.
A) 1.22

---

Please respond with reported pKd for every item in the list.
# target_entity: AmvR^E71A (Acinetobacter baumannii, UniProt A0A7U3Y8S7, E71A)
# test_description: ITC of polyamines with AmvR^E71A mutant
One number for each entry, as −log10 of the molar value.

compound	pKd
NCCCCNCCCN [spermidine]	4.39
NCCCCCN [cadaverine]	4.16

The record that follows has no pKd shown yet.
Q) Look up and report measured pKd for this entry: NCCCNCCCCNCCCN [spermine]
A) 4.05

---

# target_entity: AmvR E106A (Acinetobacter baumannii, UniProt A0A7U3Y8S7, E106A)
# test_description: ITC of spermidine with AmvR E106A mutant
property_measured: Kd (µM)
Give bare numbers, in µM.

Q) Name the recorded Kd of the molecule listed here: `NCCCCNCCCN`
A) 7.09
